Items are presented alongside their recorded IC50.
experiment: Cytotoxicity against human KB16 cells after 3 days by MTT assay; assay type: functional, cell-based; conditions: KB16, 72 h
measurement label: IC50 (µg/mL)

[[record]]
compound = "Cc1ccc(C(C)CC(O)CC(C)C)c(O)c1 (stereo unspecified)"
measurement_label = "IC50"
qual = ">"
numeric_result = 50

[[record]]
compound = "CC(C)=CCC[C@H](C)c1ccc(C)cc1O"
measurement_label = "IC50"
qual = "="
numeric_result = 8.3

[[record]]
compound = "CC(=O)OC(CC(C)C)CC(C)c1ccc(C)cc1O (stereo unspecified)"
measurement_label = "IC50"
qual = "="
numeric_result = 3.9

[[record]]
compound = "CC(=O)OC(CC(C)C)CC(C)c1ccc(C=O)cc1O (stereo unspecified)"
measurement_label = "IC50"
qual = "="
numeric_result = 4.9

[[record]]
compound = "CC(C)=C/C=C/C(C)c1ccc(C=O)c(O)c1O (stereo unspecified)"
measurement_label = "IC50"
qual = "="
numeric_result = 7.2

[[record]]
compound = "COc1cc(C(=O)O)ccc1C(C)/C=C/C=C(C)C (stereo unspecified)"
measurement_label = "IC50"
qual = "="
numeric_result = 4.8

